Taken from patent US20250281424A1.

target: human PF4 (Homo sapiens); construct: PF4 is a 70 amino acid, lysine-rich 7.8 kDa platelet-specific protein; made in house; host or cells: Escherichia coli BL21DE3 pLysS (pT7-7) and/or Drosophila S2 cells; assay: Inhibition of PF4 tetramer formation (BS3 cross-linking, SDS-PAGE); assay type: biochemical; settings: 1 μM inhibitor; read-out: % inhibition of PF4 tetramer formation at single concentration of inhibitor
Sequence (P02776 32-101): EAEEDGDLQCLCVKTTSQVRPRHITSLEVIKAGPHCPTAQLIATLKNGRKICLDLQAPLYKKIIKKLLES
Parameter threshold = 30%. Response is rule met when inhibition at 1 µM meets or exceeds it, else rule not met.

Example entries and their recorded answers appear below.
- COMPOUND: "CC(=O)NCCCC(=O)C1C(=O)c2ccc(Oc3ccc4c(c3)C(=O)C(C(=O)CCCNC(C)=O)C4=O)cc2C1=O (stereo not shown) [Example 265]"
  CLASS_LABEL: "rule not met"
- COMPOUND: "CCC(=O)C1C(=O)c2ccc(Oc3ccc4c(c3)C(=O)C(C(=O)CC)C4=O)cc2C1=O (stereo not shown) [Example 323]"
  CLASS_LABEL: "rule not met"
- COMPOUND: "O=C(CCC(=O)C1C(=O)c2ccc(S(=O)(=O)c3ccc4c(c3)C(=O)C(C(=O)CCC(=O)c3cccc(Cl)c3Cl)C4=O)cc2C1=O)c1cccc(Cl)c1Cl (stereo not shown) [Example 255]"
  CLASS_LABEL: "rule not met"
- COMPOUND: "O=C(COC1CCCCC1)C1C(=O)c2ccc(S(=O)(=O)c3ccc4c(c3)C(=O)C(C(=O)COC3CCCCC3)C4=O)cc2C1=O (stereo not shown) [Example 232]"
  CLASS_LABEL: "rule not met"
- COMPOUND: "CC(C)(C)OC(=O)N1CC[C@H](C(=O)C2C(=O)c3ccc(C(=O)c4ccc5c(c4)C(=O)C(C(=O)[C@H]4CCN(C(=O)OC(C)(C)C)C4)C5=O)cc3C2=O)C1 (stereo partly shown) [Example 373]"
  CLASS_LABEL: "rule not met"
- COMPOUND: "CCOCC(=O)C1C(=O)c2ccc(C(=O)c3ccc4c(c3)C(=O)C(C(=O)COCC)C4=O)cc2C1=O (stereo not shown) [Example 229]"
  CLASS_LABEL: "rule met"
- COMPOUND: "O=C(c1ccc2c(c1)C(=O)C(C(=O)NCC1CCS(=O)(=O)C1)C2=O)c1ccc2c(c1)C(=O)C(C(=O)NCC1CCS(=O)(=O)C1)C2=O (stereo not shown) [Example 359]"
  CLASS_LABEL: "rule met"
- COMPOUND: "O=C1c2ccc(S(=O)(=O)c3ccc4c(c3)C(=O)C(C(=O)C3CCCCC3)C4=O)cc2C(=O)C1C(=O)C1CCCCC1 (stereo not shown) [Example 288]"
  CLASS_LABEL: "rule not met"

Does N#CC1C(=O)c2ccc(C(=O)c3ccc4c(c3)C(=O)C(C#N)C4=O)cc2C1=O (stereo not shown) [Example 250] have a reported inhibition at 1 µM of at least 30%?
rule not met

// next record O=C(CN1CCCC1=O)C1C(=O)c2ccc(C#Cc3ccc4c(c3)C(=O)C(C(=O)CN3CCCC3=O)C4=O)cc2C1=O (stereo not shown) [Example 293]
rule not met

And for O=C1c2ccc(Oc3ccc4c(c3)C(=O)C(C(=O)C3CCCCC3)C4=O)cc2C(=O)C1C(=O)C1CCCCC1 (stereo not shown) [Example 286] ?
rule met

Likewise for CS(=O)(=O)N1CCC(NC(=O)C2C(=O)c3ccc(S(=O)(=O)c4ccc5c(c4)C(=O)C(C(=O)NC4CCN(S(C)(=O)=O)CC4)C5=O)cc3C2=O)CC1 (stereo not shown) [Example 364] ?
rule not met
